From: patent US11801256B2

- assay notes: Plasma drug concentrations and pharmacokinetic analyses
- Assay type: in vivo, human
- test parameters: human, in vivo, after 14 days escitalopram (10 mg 7 days, 20 mg 7 days); read-out: plasma concentrations (mean, range)
property name: concentration at 14 days (ng/mL)
Answers are plain numbers, in ng/mL.

Ask: // concentration at 14 days lookup, key: CN(C)CCC[C@@]1(c2ccc(F)cc2)OCc2cc(C#N)ccc21 [Escitalopram, escitalopram]
Reply: 41
